Sourced from ChEMBL document CHEMBL4414617

EXPERIMENT_SUMMARY: in vivo
ASSAY_CONDITIONS: Wistar, rat, po, 30 mg/kg

| CHEM_SMILES | Cmax at 24 h / ng/mL |
| --- | --- |
| N#CC[C@H]1CC[C@H](n2c(=O)[nH]c3cnc(Nc4ccc[nH]c4=O)nc32)CC1 | 7 |

---

Test system: CHO-K1
EXPERIMENT_SUMMARY: cells
Type: ADME, cell-based
ASSAY_CONDITIONS: Cricetulus griseus, CHO-K1, 24 h
Description: Cytotoxicity against CHOK1 cells assessed as reduction in ATP levels incubated for 24 hrs by ATPlite luminescence assay
pIC50: −log10 of the molar value.
Decide by pIC50: equal to or exceeding 5 means true (1), less means false (0).

| CHEM_SMILES | TESTED_SYSTEM | LABEL |
| --- | --- | --- |
| O=c1[nH]c2cnc(-c3cnc4ccc(F)cn34)nc2n1[C@@H]1CCOc2c(F)cccc21 | CHO-K1 | true (1) |
| C[C@H](c1ccc(F)cn1)n1c(=O)[nH]c2cnc(Nc3cc(F)c[nH]c3=O)nc21 | CHO-K1 | false (0) |
| Cc1c[nH]c(=O)c(Nc2ncc3[nH]c(=O)n([C@@H]4CCOc5c(F)cccc54)c3n2)c1 | CHO-K1 | false (0) |
| O=c1[nH]cc(F)cc1Nc1ncc2[nH]c(=O)n([C@@H]3CCOc4c(F)cccc43)c2n1 | CHO-K1 | false (0) |
| O=c1[nH]cc(Cl)cc1Nc1ncc2[nH]c(=O)n([C@@H]3CCOc4c(F)cccc43)c2n1 | CHO-K1 | false (0) |
| C[C@H](c1ncc(F)cn1)n1c(=O)[nH]c2cnc(-c3cnc4ccc(F)cn34)nc21 | CHO-K1 | true (1) |
| C[C@H](c1ccc(F)cn1)n1c(=O)[nH]c2cnc(Nc3ccc[nH]c3=O)nc21 | CHO-K1 | false (0) |
| C[C@]1(O)CC[C@H](n2c(=O)[nH]c3cnc(-c4cnc5ccc(F)cn45)nc32)CC1 | CHO-K1 | false (0) |
| O=c1[nH]c2cnc(-c3cnc4ccc(F)cn34)nc2n1[C@H]1CC[C@H](O)CC1 | CHO-K1 | false (0) |
| N#CC[C@H]1CC[C@H](n2c(=O)[nH]c3cnc(Nc4ccc[nH]c4=O)nc32)CC1 | CHO-K1 | false (0) |

---

TESTED_SYSTEM: Cav1.2 (Homo sapiens, UniProt Q13936)
Sequence (Q13936 whole entry): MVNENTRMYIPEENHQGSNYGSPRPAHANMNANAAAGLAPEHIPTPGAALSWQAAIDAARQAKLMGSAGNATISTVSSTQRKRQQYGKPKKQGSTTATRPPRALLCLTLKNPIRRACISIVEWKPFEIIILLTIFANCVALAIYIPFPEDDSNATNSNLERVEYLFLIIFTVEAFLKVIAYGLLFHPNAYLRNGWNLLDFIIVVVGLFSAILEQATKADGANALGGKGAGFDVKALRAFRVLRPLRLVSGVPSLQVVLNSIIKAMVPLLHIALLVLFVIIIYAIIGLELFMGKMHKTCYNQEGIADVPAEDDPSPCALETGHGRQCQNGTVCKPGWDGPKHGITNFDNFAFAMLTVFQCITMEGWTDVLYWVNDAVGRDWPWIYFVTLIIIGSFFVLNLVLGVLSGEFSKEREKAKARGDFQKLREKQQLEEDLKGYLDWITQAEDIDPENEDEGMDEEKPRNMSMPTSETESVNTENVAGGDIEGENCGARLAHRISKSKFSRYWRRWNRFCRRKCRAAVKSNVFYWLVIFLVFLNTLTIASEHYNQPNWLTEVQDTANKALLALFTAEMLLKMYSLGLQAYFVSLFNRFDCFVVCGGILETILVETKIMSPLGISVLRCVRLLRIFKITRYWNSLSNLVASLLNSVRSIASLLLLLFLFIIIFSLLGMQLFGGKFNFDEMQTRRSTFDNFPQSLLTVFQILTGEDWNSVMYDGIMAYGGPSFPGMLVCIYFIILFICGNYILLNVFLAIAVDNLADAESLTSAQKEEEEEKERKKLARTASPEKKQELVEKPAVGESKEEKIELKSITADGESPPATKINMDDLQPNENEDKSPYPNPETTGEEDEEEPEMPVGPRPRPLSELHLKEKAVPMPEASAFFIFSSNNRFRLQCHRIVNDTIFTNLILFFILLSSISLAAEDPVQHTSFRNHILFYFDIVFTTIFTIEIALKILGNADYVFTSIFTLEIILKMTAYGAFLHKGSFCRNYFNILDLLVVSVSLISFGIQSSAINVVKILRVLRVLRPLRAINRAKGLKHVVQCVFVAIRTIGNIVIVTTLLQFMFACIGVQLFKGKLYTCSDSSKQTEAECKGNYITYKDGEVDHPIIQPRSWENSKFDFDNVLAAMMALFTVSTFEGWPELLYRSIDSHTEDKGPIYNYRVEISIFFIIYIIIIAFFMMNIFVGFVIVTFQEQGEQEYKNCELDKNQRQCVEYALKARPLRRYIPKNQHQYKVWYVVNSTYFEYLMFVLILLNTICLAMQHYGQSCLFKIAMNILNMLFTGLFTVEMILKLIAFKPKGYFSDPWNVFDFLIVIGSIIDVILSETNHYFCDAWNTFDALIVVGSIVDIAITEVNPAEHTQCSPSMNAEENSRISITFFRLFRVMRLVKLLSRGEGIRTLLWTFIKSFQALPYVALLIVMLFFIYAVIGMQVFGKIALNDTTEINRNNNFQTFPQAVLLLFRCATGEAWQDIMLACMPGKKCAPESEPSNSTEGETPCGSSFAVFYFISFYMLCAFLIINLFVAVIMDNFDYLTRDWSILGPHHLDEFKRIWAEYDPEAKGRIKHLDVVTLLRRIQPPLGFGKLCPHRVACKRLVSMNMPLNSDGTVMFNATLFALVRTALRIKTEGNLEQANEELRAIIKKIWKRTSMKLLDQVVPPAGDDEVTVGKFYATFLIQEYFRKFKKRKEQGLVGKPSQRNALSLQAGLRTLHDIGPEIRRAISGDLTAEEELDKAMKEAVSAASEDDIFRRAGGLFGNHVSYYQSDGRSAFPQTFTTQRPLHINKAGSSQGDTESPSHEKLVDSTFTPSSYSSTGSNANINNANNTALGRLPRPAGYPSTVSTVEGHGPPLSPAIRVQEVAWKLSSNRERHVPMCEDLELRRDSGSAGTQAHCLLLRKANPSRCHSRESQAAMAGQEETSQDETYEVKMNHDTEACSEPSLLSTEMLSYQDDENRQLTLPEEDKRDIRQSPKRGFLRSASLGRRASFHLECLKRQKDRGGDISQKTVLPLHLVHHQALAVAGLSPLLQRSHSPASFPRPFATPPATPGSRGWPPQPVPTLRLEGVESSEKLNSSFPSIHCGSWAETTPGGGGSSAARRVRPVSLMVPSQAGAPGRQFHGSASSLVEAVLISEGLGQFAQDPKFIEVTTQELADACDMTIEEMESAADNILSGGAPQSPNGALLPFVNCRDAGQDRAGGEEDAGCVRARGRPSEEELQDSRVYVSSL
EXPERIMENT_SUMMARY: in vitro
Description: Inhibition of Cav1.2 (unknown origin) at 10 uM relative to control
EXPERIMENTAL_READOUT: inhibition at 10 µM

| CHEM_SMILES | EXPERIMENTAL_READOUT | ASSAY_RESULT |
| --- | --- | --- |
| N#CC[C@H]1CC[C@H](n2c(=O)[nH]c3cnc(Nc4ccc[nH]c4=O)nc32)CC1 | inhibition at 10 µM | < 15% |

---

EXPERIMENT_SUMMARY: in vitro
ASSAY_CONDITIONS: human, plasma
Description: Protein binding in human plasma by LC-MS/MS-based equilibrium dialysis method

| CHEM_SMILES | fraction unbound |
| --- | --- |
| N#CC[C@H]1CC[C@H](n2c(=O)[nH]c3cnc(Nc4ccc[nH]c4=O)nc32)CC1 | 0.17 |

---

EXPERIMENT_SUMMARY: physchem
ASSAY_CONDITIONS: octanol/water
Description: Lipophilicity, log D of compound
EXPERIMENTAL_READOUT: logD

| CHEM_SMILES | EXPERIMENTAL_READOUT | ASSAY_RESULT |
| --- | --- | --- |
| N#CC[C@H]1CC[C@H](n2c(=O)[nH]c3cnc(Nc4ccc[nH]c4=O)nc32)CC1 | logD | 2.1 |

---

EXPERIMENT_SUMMARY: in vitro
ASSAY_CONDITIONS: rat, microsomes
Description: Drug metabolism in rat liver microsomes at 5 uM incubated for 30 mins by UPLC-MS/MS analysis

| CHEM_SMILES | metabolised at 0.5 h, 5 µM / % |
| --- | --- |
| N#CC[C@H]1CC[C@H](n2c(=O)[nH]c3cnc(Nc4ccc[nH]c4=O)nc32)CC1 | 17 |

---

EXPERIMENT_SUMMARY: in vitro
ASSAY_CONDITIONS: rat, plasma
Description: Protein binding in rat plasma by LC-MS/MS-based equilibrium dialysis method

| CHEM_SMILES | fraction unbound |
| --- | --- |
| N#CC[C@H]1CC[C@H](n2c(=O)[nH]c3cnc(Nc4ccc[nH]c4=O)nc32)CC1 | 0.21 |

---

TESTED_SYSTEM: hERG (KCNH2) (Homo sapiens, UniProt Q12809)
Sequence (Q12809 whole entry): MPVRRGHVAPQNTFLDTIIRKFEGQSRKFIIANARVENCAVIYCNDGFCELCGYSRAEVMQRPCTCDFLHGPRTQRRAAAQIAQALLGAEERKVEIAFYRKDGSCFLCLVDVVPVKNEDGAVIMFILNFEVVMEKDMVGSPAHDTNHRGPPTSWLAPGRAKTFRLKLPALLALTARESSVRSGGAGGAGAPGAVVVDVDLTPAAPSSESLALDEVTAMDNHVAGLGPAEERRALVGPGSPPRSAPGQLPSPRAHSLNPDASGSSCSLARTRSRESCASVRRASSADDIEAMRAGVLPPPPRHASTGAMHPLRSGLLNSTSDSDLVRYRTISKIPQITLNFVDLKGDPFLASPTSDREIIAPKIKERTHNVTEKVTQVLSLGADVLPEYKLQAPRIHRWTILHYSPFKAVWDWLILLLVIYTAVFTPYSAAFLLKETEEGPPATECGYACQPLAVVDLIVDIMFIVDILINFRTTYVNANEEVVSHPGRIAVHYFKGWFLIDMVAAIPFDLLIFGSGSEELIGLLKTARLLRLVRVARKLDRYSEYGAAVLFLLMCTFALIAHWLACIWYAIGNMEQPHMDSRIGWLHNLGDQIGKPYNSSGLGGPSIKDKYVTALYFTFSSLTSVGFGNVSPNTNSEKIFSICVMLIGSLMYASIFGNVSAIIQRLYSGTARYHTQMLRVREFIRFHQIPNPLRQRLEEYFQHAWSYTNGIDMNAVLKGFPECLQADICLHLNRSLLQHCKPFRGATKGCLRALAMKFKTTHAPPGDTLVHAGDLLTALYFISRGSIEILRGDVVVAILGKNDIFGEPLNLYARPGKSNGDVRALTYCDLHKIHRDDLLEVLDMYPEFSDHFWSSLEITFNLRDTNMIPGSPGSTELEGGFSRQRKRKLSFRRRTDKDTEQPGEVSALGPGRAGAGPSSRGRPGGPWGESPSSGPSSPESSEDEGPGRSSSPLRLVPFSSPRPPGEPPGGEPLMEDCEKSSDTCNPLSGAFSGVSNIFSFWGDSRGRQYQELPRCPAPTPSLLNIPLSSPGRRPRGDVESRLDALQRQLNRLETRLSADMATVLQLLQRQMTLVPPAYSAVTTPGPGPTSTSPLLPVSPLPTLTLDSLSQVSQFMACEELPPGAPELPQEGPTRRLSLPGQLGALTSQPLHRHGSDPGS
EXPERIMENT_SUMMARY: in vitro
Description: Inhibition of human ERG at 10 uM relative to control

| CHEM_SMILES | inhibition at 10 µM |
| --- | --- |
| N#CC[C@H]1CC[C@H](n2c(=O)[nH]c3cnc(Nc4ccc[nH]c4=O)nc32)CC1 | < 15% |

---

EXPERIMENT_SUMMARY: in vivo
ASSAY_CONDITIONS: Wistar, rat, inhaled or intranasal

| CHEM_SMILES | AUC at 24 h (ng·h/mL) |
| --- | --- |
| N#CC[C@H]1CC[C@H](n2c(=O)[nH]c3cnc(Nc4ccc[nH]c4=O)nc32)CC1 | 118 |

---

TESTED_SYSTEM: UniProtKB Q14524
EXPERIMENT_SUMMARY: in vitro
Description: Inhibition of NaV1.5 (unknown origin) at 10 uM relative to control

| CHEM_SMILES | inhibition at 10 µM |
| --- | --- |
| N#CC[C@H]1CC[C@H](n2c(=O)[nH]c3cnc(Nc4ccc[nH]c4=O)nc32)CC1 | < 15% |

---

EXPERIMENT_SUMMARY: in vitro
ASSAY_CONDITIONS: human, microsomes
Description: Drug metabolism in human liver microsomes at 5 uM incubated for 30 mins by UPLC-MS/MS analysis

| CHEM_SMILES | metabolised at 0.5 h, 5 µM (%) |
| --- | --- |
| N#CC[C@H]1CC[C@H](n2c(=O)[nH]c3cnc(Nc4ccc[nH]c4=O)nc32)CC1 | 21 |

---

EXPERIMENT_SUMMARY: in vitro
ASSAY_CONDITIONS: PAMPA
Description: Apparent permeability of compound at 20 uM measured after 5 hrs by PAMPA
EXPERIMENTAL_READOUT: Papp at 5 h, 20 µM (×10⁻⁶ cm/s)

| CHEM_SMILES | EXPERIMENTAL_READOUT | MEASUREMENT_UNITS | ASSAY_RESULT |
| --- | --- | --- | --- |
| N#CC[C@H]1CC[C@H](n2c(=O)[nH]c3cnc(Nc4ccc[nH]c4=O)nc32)CC1 | Papp at 5 h, 20 µM | ×10⁻⁶ cm/s | 0.61 |
